- System: Septoria tritici
- METHOD DESCRIPTION: Test C: preventive spray on wheat seedlings, Septoria tritici (wheat leaf blotch), visual disease rating
- Format: in vivo
- REPORTED CONDITIONS: values marked with asterisk (*), meaning not given
Marks after values point to notes of the source that are not given here.
ENDPOINT: Test C disease control rating

Provide the reported Test C disease control rating of each entry below, same order.
1. Cc1cnn(-c2cnc(CCNC(=O)c3ncccc3C(F)(F)F)nc2)c1 [Compound 182]
2. Cc1scnc1C(=O)Nc1ccccc1-c1cnc(-n2ccc(C(F)(F)F)n2)c(Cl)c1 [compound 170]
3. O=C(Nc1ccccc1-c1cnc(-n2ccc(C(F)(F)F)n2)c(Cl)c1)c1scnc1C(F)(F)F [compound 165]

9* %
74* %
99* %

State recorded Test C disease control rating for all listed compounds.
1. O=C(NCCc1ncc(-n2ccc(Cl)n2)cn1)c1ncccc1C(F)(F)F [Compound 181]
2. CSc1ccsc1C(=O)Nc1ccccc1-c1cnc(-n2ccc(C(F)(F)F)n2)c(Cl)c1 [compound 141]
3. Cc1ccsc1C(=O)Nc1ccccc1-c1cnc(-n2ccc(C(F)(F)F)n2)c(C#N)c1 [compound 154]
4. O=C(Nc1ccccc1-c1ccc(-n2nc(C(F)(F)F)cc2O)nc1)c1ncccc1C(F)(F)F [compound 82]
5. CSc1sccc1C(=O)Nc1ccccc1-c1cnc(-n2ccc(C(F)(F)F)n2)c(Cl)c1 [compound 142]

1: 20* %; 2: 76* %; 3: 94* %; 4: 48* %; 5: 88* %

###

- System: Puccinia recondite f. sp. tritici
- METHOD DESCRIPTION: Test D: preventive spray on wheat seedlings, Puccinia recondite f. sp. tritici (wheat leaf rust), visual disease rating
- Assay type: in vivo
- REPORTED CONDITIONS: 100 = 100% disease control, 0 = no control, unmarked values
ENDPOINT: Test D disease control rating

[
  {
    "COMPOUND": "Cn1cc(C(=O)Nc2ccccc2-c2ccc(-n3ccc(-c4ccccc4)n3)nc2)c(C(F)F)n1",
    "Test D disease control rating": "100%"
  },
  {
    "COMPOUND": "O=C(Nc1ccccc1-c1ccc(-n2cc(Cl)cn2)nc1)c1ccccc1C(F)(F)F",
    "Test D disease control rating": "89%"
  },
  {
    "COMPOUND": "CCOC(=O)C1(C)CC(c2ccc(-c3ccccc3NC(=O)c3ncccc3C(F)(F)F)cn2)=NO1 (racemic)",
    "Test D disease control rating": "68%"
  },
  {
    "COMPOUND": "O=C(Nc1ccccc1-c1cnc(-n2ccc(C(F)(F)F)n2)c(Cl)c1)c1ccccc1C(F)F",
    "Test D disease control rating": "99%"
  },
  {
    "COMPOUND": "COc1ccc(-c2ccn(-c3ccc(-c4ccccc4NC(=O)c4cn(C)nc4C(F)F)cn3)n2)c(OC)c1",
    "Test D disease control rating": "100%"
  },
  {
    "COMPOUND": "O=C(Nc1ccccc1-c1cnc(-n2ccc(C(F)(F)F)n2)c(Cl)c1)c1ccccc1C(F)(F)F",
    "Test D disease control rating": "100%"
  }
]

We next turn to a different compound, shown below.
Consider the compound CC1(C(=O)O)CC(c2ccc(-c3ccccc3NC(=O)c3ncccc3C(F)(F)F)cn2)=NO1 (racemic) and give its recorded Test D disease control rating.
0%
